The origin of these recorded values is the supplement of paper PMC10567573.

B1: LARP4 (parent)
chain: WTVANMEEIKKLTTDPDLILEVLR

# Variants of: B1
# TEST_METHOD_NOTES: protein stability index of a GFP-peptide fusion (GPS, HEK-293T) (PSI 1-6); higher = more stable;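 also: lentivirally expressed fusions sorted by FACS into six bins by GFP to DsRed ratio, PSI derived from sequencing read proportions per bin multiplied by bin number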
# STATED_CONDITIONS: c terminus: a fixed tail appended
Recorded protein stability index by entry

| SEQUENCE_VARIANT | protein stability index |
| --- | --- |
| P16E | 2.22 |
| M6K | 1.89 |
| V3N | 2.24 |
| L18P | 2.33 |
| L12F | 2.97 |
| L20C | 2.56 |
| A4W | 1.21 |
| E8F | 1.7 |
| V3P | 1.92 |
| K11C | 2.33 |
| E7V | 1.93 |
